Catalogue of Ki values
biological target: Peptidyl-prolyl cis-trans isomerase F, mitochondrial (Human, UniProt P30405); experiment: Cyclophilin Peptidyl-Prolyl Isomerase Functional Assay
Sequence (P30405 whole entry): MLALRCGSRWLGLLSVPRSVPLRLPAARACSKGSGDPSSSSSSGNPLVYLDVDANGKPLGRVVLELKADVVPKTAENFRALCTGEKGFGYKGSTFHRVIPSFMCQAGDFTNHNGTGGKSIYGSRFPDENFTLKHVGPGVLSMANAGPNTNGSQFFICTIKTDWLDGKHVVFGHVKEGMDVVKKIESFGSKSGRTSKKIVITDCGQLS
Starred links: 1 amine or outer side, 2 acyl side, 3 side chain; linkers in the order of their positions; H or OH if unused. Non-standard residues stand in square brackets, D forms with d. Residues, ends and D or L forms follow the SMILES beside them. MeBmt = C/C=C/C[C@@H](C)[C@@H](O)[C@H](NC)C(=O)O; X1 = CN([C@H](OCCN1CCOCC1)C(=O)[*:2])[*:1]; X2 = CN(C)CCO[C@H](C(=O)[*:2])N(C)[*:1]; NMeL = CN[C@@H](CC(C)C)C(=O)O; NMeV = CN[C@H](C(=O)O)C(C)C; Nva = CCC[C@H](N)C(=O)O
Numbers only; they are read as nM.

Solved cases (3 shown):
C/C=C/C[C@@H](C)[C@@H](O)[C@H]1C(=O)N[C@@H](C(C)C)C(=O)N(C)[C@H](OCCN(C)C)C(=O)N(C)[C@@H](CC(C)C)C(=O)N[C@@H](C(C)C)C(=O)N(C)[C@@H](CC(C)C)C(=O)N[C@@H](C)C(=O)N[C@H](C)C(=O)N(C)[C@@H](CC(C)C)C(=O)N(C)[C@@H](CC(C)C)C(=O)N(C)[C@@H](C(C)C)C(=O)N1C [US12522634, Compound 3] (cyclo(A[dA][NMeL][NMeL][NMeV][MeBmt]V[X2][NMeL]V[NMeL])); 5.1
C/C=C/C[C@@H](C)[C@@H](O)[C@H]1C(=O)N[C@@H](CCC)C(=O)N(C)[C@H](OCCN2CCOCC2)C(=O)N(C)[C@@H](CC(C)C)C(=O)N[C@@H](C(C)C)C(=O)N(C)[C@@H](CC(C)C)C(=O)N[C@@H](C)C(=O)N[C@H](C)C(=O)N(C)[C@@H](CC(C)C)C(=O)N(C)[C@@H](CC(C)C)C(=O)N(C)[C@@H](C(C)C)C(=O)N1C [US12522634, Compound 8] (cyclo(A[dA][NMeL][NMeL][NMeV][MeBmt][Nva][X1][NMeL]V[NMeL])); 35
C/C=C/C[C@@H](C)[C@@H](O)[C@H]1C(=O)N[C@@H](C(C)C)C(=O)N(C)[C@H](OCCN2CCOCC2)C(=O)N(C)[C@@H](CC(C)C)C(=O)N[C@@H](C(C)C)C(=O)N(C)[C@@H](CC(C)C)C(=O)N[C@@H](C)C(=O)N[C@H](C)C(=O)N(C)[C@@H](CC(C)C)C(=O)N(C)[C@@H](CC(C)C)C(=O)N(C)[C@@H](C(C)C)C(=O)N1C [US12522634, Compound 4] (cyclo(A[dA][NMeL][NMeL][NMeV][MeBmt]V[X1][NMeL]V[NMeL])); 4.1

Per the record, C/C=C/C[C@@H](C)[C@@H](O)[C@H]1C(=O)N[C@@H](CCC)C(=O)N(C)[C@H](OCCN(C)C)C(=O)N(C)[C@@H](CC(C)C)C(=O)N[C@@H](C(C)C)C(=O)N(C)[C@@H](CC(C)C)C(=O)N[C@@H](C)C(=O)N[C@H](C)C(=O)N(C)[C@@H](CC(C)C)C(=O)N(C)[C@@H](CC(C)C)C(=O)N(C)[C@@H](C(C)C)C(=O)N1C [US12522634, Compound 7] (cyclo(A[dA][NMeL][NMeL][NMeV][MeBmt][Nva][X2][NMeL]V[NMeL])) has Ki of 5.9
